Biological target: MERTK (UniProt Q12866)
Sequence (Q12866 whole entry, looked up): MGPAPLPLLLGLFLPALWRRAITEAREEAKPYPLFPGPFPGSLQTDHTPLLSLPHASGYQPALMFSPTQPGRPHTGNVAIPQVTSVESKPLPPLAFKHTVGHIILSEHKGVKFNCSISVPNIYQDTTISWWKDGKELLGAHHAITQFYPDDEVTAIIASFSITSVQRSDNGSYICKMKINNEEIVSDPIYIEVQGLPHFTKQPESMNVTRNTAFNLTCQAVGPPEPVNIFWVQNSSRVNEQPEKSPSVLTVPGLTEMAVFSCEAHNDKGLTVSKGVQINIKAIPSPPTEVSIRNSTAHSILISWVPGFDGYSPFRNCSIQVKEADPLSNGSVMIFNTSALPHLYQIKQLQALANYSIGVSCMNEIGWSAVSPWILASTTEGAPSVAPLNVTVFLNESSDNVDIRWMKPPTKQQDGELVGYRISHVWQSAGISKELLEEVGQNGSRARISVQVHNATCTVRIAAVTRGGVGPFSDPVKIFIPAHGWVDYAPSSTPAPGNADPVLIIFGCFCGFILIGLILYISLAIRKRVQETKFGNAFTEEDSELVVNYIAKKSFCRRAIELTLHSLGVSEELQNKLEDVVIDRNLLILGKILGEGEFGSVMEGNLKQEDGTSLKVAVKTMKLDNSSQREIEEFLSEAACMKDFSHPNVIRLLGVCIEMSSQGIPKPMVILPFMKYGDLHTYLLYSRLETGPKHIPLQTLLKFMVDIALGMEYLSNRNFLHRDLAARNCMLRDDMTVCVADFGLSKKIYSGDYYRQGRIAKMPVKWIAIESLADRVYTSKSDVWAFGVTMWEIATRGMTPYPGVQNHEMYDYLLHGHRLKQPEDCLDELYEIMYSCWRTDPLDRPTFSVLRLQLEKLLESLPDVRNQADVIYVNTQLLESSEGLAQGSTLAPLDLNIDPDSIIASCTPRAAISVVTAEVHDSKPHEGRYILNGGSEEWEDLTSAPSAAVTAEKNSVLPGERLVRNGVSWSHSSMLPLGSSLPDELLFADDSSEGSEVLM
Assay: phosphorylation enrichment, bacterial display (enrichment ratio); higher = better substrate or ligand; peptides without Tyr show the background;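 note: 11-residue human phosphosite peptides and single-mutation variants displayed on the E. coli surface, counted by deep sequencing, each peptide's frequency after selection divided by its frequency in the unselected input library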;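 note: frequency after pTyr selection over input frequency; kinase dosed for 20-30% of maximal phosphorylation in three min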
READOUT: phosphorylation enrichment
Lab note: jot down the number only; don't add units.

Record excerpt, results attached:
IGRGSYAKVLL [PRKCZ_Y263]    0.452
REHTVYGEPRK [MAGEA4_Y240]    0.492
PSPMPYASCQM [FOXL2_Y215]    0.608
SVVVPSEPPEV [TP53_Y220_Y220S]    0.431
KMKGDYFRSLA [YWHAG_Y130_Y133S_YF]    0.437
KHASTYREAAT [DEAF1_Y483]    0.359

Here is the next item to consider.
## Task Form field: reported phosphorylation enrichment of RSGIFYKPESL [L2HGDH_Y103_H98R_YF]
## Result 0.499
